Cited source: ChEMBL document CHEMBL2146399

Test: Cytotoxicity against human RWPE1 cells assessed as cell viability at 10 uM after 3 days by CCK8 method
Type: cell-based, RWPE-1
Details: read-out: Activity
measured quantity: viability at 72 h, 10 µM (%)
Note: unit % is implicit; provide only the numeric part.

Provide one value: measured viability at 72 h, 10 µM of O=C(O)c1ccc2c(c1)nc(Nc1cccc(Cl)c1)c1ccncc12 [SILMITASERTIB]
94
